assay: HoxA9-arrested leukemia cell differentiation promoters – flow cytometry, MLPCN library, primary screen (AID 624256); conditions: ER-HoxA9 myeloid progenitors, lysozyme-GFP differentiation, at 10 µM; measured here: differentiation confirmed by MAC1 staining, stronger effect = higher value;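 note: cells exposed to compound for four days before flow analysis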
The campaign covered roughly 360,000 compounds. About 3,700 (1%) were called active. Not shown: some 2% with an inconclusive outcome. Many of the other results were omitted from the sample, so actives are more common in it than they were.
Listed next: entries and their corresponding GFP+ MAC1+ double positive.

- compound: "CCOc1ccc(C(=O)Nc2ccc(S(=O)(=O)NCC3CCCO3)cc2)cc1OCC (stereo not given)"
  GFP+ MAC1+ double positive: "2.1%"
- compound: "CCOC(=O)[C@]12CCCC=C1N(Cc1cccc3ccccc13)C(=O)[C@H](CC(=O)NCC13CC4CC(CC(C4)C1)C3)C2"
  GFP+ MAC1+ double positive: "2.1%"
- compound: "O=C(Nc1ccc(S(=O)(=O)NCC2CCCO2)cc1)c1ccc(F)cc1 (stereo not given)"
  GFP+ MAC1+ double positive: "0.4%"
- compound: "CN(C)C1CN(Cc2cn(Cc3ccccc3)nn2)S(=O)(=O)C1 (stereo not given)"
  GFP+ MAC1+ double positive: "1.6%"
- compound: "CC(C)(C)SCCNC(=O)c1cccc([N+](=O)[O-])c1"
  GFP+ MAC1+ double positive: "1.8%"
